meta.source: paper PMC10397247

Target: T1, O7-bP
T1 chain: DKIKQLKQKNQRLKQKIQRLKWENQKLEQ
Experiment: two-hybrid library CCNG1;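 note: natural log of median RNA to DNA barcode read ratio; higher means stronger binding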
measure-name: interaction score

Past entries and their recorded results:
[
  {
    "binder": "DENKQLEQKNQRLKQKIQRLKWKIQKLKQ [O2-bP]",
    "interaction score": -0.723
  },
  {
    "binder": "DKIKQLKQKNQRLKQKIQRLKWENQKLEQ [O7-bP]",
    "interaction score": -1.43
  },
  {
    "binder": "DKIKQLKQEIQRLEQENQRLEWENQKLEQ [O11-bP]",
    "interaction score": -1.03
  },
  {
    "binder": "DEIKQLEQKIQRLKQENQRLEWENQKLEQ [O3-bP]",
    "interaction score": -1.61
  },
  {
    "binder": "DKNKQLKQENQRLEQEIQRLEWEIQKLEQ [O1-bP]",
    "interaction score": -1.06
  }
]

a: DKIKQLKQKNQRLKQEIQRLEWKNQKLKQ [O16-bP]
b: DEIKQLEQKIQRLKQKNQRLKWKNQKLKQ [O12-bP]
## Task # argmax over interaction score for candidates a and b Please respond with the label that marks your chosen entry.
## Result b
(b: -0.715, a: -1.1)
